src = patent US12678428B2

# assay-explanation: In vitro cytotoxicity by MTT assay in HaCaT cells
# Assay type: cell-based
# cond: human, HaCaT keratinocyte cells, test concentration 4 mg/mL
outcome-measure: cytotoxicity at 24 h, 4 mg/mL (%)
Report as a plain number; the unit % is understood.

Quick one: cytotoxicity at 24 h, 4 mg/mL for Cc1ncc(CO)c(CN)c1O ?
75.8

---

# assay-explanation: In vitro cytotoxicity by MTT assay in HaCaT cells
# Type: cell-based
# cond: human, HaCaT keratinocyte cells, test concentration 3 mg/mL
outcome-measure: cytotoxicity at 24 h, 3 mg/mL (%)
Report as a plain number; the unit % is understood.

Quick one: cytotoxicity at 24 h, 3 mg/mL for Cc1ncc(CO)c(CN)c1O ?
67.5
